Origin of measurements: ChEMBL document CHEMBL3232944

- Tested on: RAW264.7
- PROCEDURE_TEXT: Cytotoxicity against mouse RAW264.7 cells assessed as cell viability at >10 uM after 24 hrs by MTT assay in presence of LPS
- Type: cell-based
- TEST_SETTINGS: raw264.7, 24 h
ASSAY_METRIC: Activity

* Cc1ccc(C2=C(c3ccc(S(N)(=O)=O)cc3)C(=O)N(C)C2=O)cc1 | Non-toxic
* Cc1ccc(C2=C(c3ccc(S(N)(=O)=O)cc3)C(=O)NC2=O)cc1 | Non-toxic
* CN1C(=O)C(c2ccccc2)=C(c2ccc(S(N)(=O)=O)cc2)C1=O | Non-toxic

---

Answer each item with its documented pIC50.
- ASSAYED_SYSTEM: Prostaglandin G/H synthase 1 (Ovis aries, UniProt P05979)
- Sequence (P05979 whole entry): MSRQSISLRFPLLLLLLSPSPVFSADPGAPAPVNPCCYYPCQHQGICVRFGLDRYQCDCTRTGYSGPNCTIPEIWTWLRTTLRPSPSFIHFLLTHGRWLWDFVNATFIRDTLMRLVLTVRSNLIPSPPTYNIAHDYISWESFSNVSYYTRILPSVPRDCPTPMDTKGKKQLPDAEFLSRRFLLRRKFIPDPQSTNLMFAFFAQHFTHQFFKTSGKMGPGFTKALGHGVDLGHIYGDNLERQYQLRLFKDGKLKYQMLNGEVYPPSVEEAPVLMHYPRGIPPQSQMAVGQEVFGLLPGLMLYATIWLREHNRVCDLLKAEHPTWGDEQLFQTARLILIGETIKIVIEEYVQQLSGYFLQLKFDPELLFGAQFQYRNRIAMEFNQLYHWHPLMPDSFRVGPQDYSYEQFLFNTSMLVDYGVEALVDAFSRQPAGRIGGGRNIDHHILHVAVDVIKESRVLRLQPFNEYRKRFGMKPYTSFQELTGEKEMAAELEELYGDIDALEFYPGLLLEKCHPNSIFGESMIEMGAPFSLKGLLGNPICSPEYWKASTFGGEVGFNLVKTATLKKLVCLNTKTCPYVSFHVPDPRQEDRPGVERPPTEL
- PROCEDURE_TEXT: Inhibition of ovine COX-1 assessed as decrease in PGH2 production using arachidonic acid as substrate treated with enzyme for 10 mins prior to substrate challenge for 2 mins by enzyme immunoassay
pIC50: −log10 of the molar value.

For reference, reported pIC50 for `Cc1ccc(C2=C(c3ccc(S(N)(=O)=O)cc3)C(=O)NC2=O)cc1` stands at < 4.00

For reference, reported pIC50 for `NS(=O)(=O)c1ccc(C2=C(c3ccccc3)C(=O)NC2=O)cc1` stands at 3.90

For reference, reported pIC50 for `COc1ccc(C2=C(c3ccc(S(N)(=O)=O)cc3)C(=O)N(C)C2=O)cc1` stands at < 6.00

For reference, reported pIC50 for `CN1C(=O)C(c2ccc(Cl)cc2)=C(c2ccc(S(N)(=O)=O)cc2)C1=O` stands at < 6.00

For reference, reported pIC50 for `COc1ccc(C2=C(c3ccc(S(N)(=O)=O)cc3)C(=O)NC2=O)cc1` stands at < 4.00

For reference, reported pIC50 for `NS(=O)(=O)c1ccc(C2=C(c3ccc(Cl)cc3)C(=O)NC2=O)cc1` stands at < 4.00

For reference, reported pIC50 for `CN1C(=O)C(c2ccccc2)=C(c2ccc(S(N)(=O)=O)cc2)C1=O` stands at < 6.00

For reference, reported pIC50 for `Cc1ccc(C2=C(c3ccc(S(N)(=O)=O)cc3)C(=O)N(C)C2=O)cc1` stands at < 6.00
